Can you tell me BPR for the items I'm about to list?
experiment summary: Ratio of drug concentration in brain to plasma of Sprague-Dawley rat at 30 mg/kg, po measured after 1 hr
Format: ADME, organism-based
Answers are plain numbers, in %.

Dear colleague, could you please provide BPR for the compounds listed below?
1. C[C@@H](CC(=O)NC[C@H](Cc1ccc(O)cc1)N(C)C)c1ccccc1
2. C[C@H](CC(=O)NC[C@H](Cc1ccc(O)cc1)N(C)C)c1ccccc1
3. CN(C)[C@H](CNC(=O)[C@@H]1C[C@@]1(C)c1ccccc1)Cc1ccc(O)cc1
4. C[C@H](NC(=O)NC[C@H](Cc1ccc(O)cc1)N(C)C)c1ccccc1
5. C[C@@H](CC(=O)NC[C@H](Cc1c(F)cc(O)cc1F)N(C)C)c1ccccc1
6. C[C@H](OC(=O)NC[C@H](Cc1ccc(O)cc1)N(C)C)c1ccccc1

OUTPUT:
[85, 125, 89, 17, 72, 323]

----------
tgt: Mu-type opioid receptor (Homo sapiens)
experiment summary: Agonist activity at human mu opioid receptor stably transfected in CHO cells by cAMP assay
readout type: EC50 (nM)
Give bare numbers, in nM.

Before answering, review these 4 worked examples.
CN(C)[C@H](CNC(=O)N[C@@H](c1ccccc1)C1CC1)Cc1ccc(O)cc1    104
C[C@@H](OC(=O)NC[C@H](Cc1ccc(O)cc1)N(C)C)c1ccccc1    62
CN(C)[C@H](CNC(=O)[C@@H]1C[C@@]1(C)c1ccccc1)Cc1ccc(O)cc1    0.87
C[C@H](OC(=O)NC[C@H](Cc1ccc(O)cc1)N(C)C)c1ccccc1    180

INPUT: Please give measured EC50 of the following entry: C[C@@H](OC(=O)NC[C@@H](Cc1ccc(O)cc1)N(C)C)c1ccccc1
OUTPUT: 950

----------
tgt: Mu-type opioid receptor (Homo sapiens, UniProt P35372)
Sequence (P35372 whole entry): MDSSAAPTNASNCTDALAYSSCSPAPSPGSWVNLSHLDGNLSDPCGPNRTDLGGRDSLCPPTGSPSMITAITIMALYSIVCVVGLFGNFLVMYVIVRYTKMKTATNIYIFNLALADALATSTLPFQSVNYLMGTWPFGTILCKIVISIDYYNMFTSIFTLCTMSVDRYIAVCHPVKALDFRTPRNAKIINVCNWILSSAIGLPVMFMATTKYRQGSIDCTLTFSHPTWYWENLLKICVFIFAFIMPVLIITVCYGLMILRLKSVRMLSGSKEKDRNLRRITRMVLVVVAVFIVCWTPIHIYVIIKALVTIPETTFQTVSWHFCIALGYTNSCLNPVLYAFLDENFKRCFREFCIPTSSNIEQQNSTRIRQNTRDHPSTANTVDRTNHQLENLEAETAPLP
experiment summary: Agonist activity at human mu opioid receptor stably transfected in CHO cells assessed as maximal response by cAMP assay relative to DAMGO
Type: functional, cell-based
applied conditions: filed as agonist
Would you mind telling me the reported Emax of each entry?
One number for each entry, in %.

Use the examples below as a reference point.
CN(C)[C@H](CNC(=O)[C@@H]1C[C@@]1(C)c1ccccc1)Cc1ccc(O)cc1    90
C[C@@H](CC(=O)NC[C@H](Cc1ccc(O)cc1)N(C)C)c1ccccc1    68
C[C@H](CC(=O)NC[C@H](Cc1ccc(O)cc1)N(C)C)c1ccccc1    68
Cc1cc(O)ccc1C[C@@H](CNC(=O)[C@@H]1C[C@@]1(C)c1ccccc1)N(C)C    100

Consider the additional compound presented here.
INPUT: Report its Emax with Mu-type opioid receptor (Homo sapiens, UniProt P35372) as the test system: C[C@H](NC(=O)NC[C@H](Cc1ccc(O)cc1)N(C)C)c1ccccc1
OUTPUT: 48

----------
Exercise: state measured log10 EC50 for each of the compounds provided.
tgt: Mu-type opioid receptor (Homo sapiens)
experiment summary: Agonist activity at human mu opioid receptor stably transfected in CHO cells by cAMP assay
On a log10 scale: recorded EC50, unit nM.

Consider the following illustrative entries.
CN(C)[C@@H](CNC(=O)N[C@H](c1ccccc1)C1CC1)Cc1ccc(O)cc1    2.54
CN(C)[C@H](CNC(=O)O[C@H](c1ccccc1)C1CC1)Cc1ccc(O)cc1    2.89
Cc1cc(O)cc(C)c1C[C@@H](CNC(=O)[C@@H]1C[C@@]1(C)c1ccccc1)N(C)C    0.30
CN(C)[C@@H](CNC(=O)N[C@@H](c1ccccc1)C1CC1)Cc1ccc(O)cc1    2.39
C[C@H](NC(=O)NC[C@H](Cc1ccc(O)cc1)N(C)C)c1ccccc1    1.32
Cc1cc(O)ccc1C[C@@H](CNC(=O)[C@@H]1C[C@@]1(C)c1ccccc1)N(C)C    -0.48

Okay, next one:
INPUT: Find log10 EC50 for CN(C)[C@H](CNC(=O)N[C@H](c1ccccc1)C1CC1)Cc1ccc(O)cc1 on Mu-type opioid receptor (Homo sapiens) and write it down.
OUTPUT: 0.86

----------
experiment summary: Plasma concentration in Sprague-Dawley rat at 30 mg/kg, po and measured after 1 hr
Format: ADME, organism-based
Please go through the items and note down their concentration at 1 h.
Answers are plain numbers, in ng/mL.

# annotated cases, reported concentration at 1 h shown
C[C@@H](CC(=O)NC[C@H](Cc1ccc(O)cc1)N(C)C)c1ccccc1    16.9
CN(C)[C@H](CNC(=O)[C@@H]1C[C@@]1(C)c1ccccc1)Cc1ccc(O)cc1    3.7
C[C@@H](CC(=O)NC[C@H](Cc1c(F)cc(O)cc1F)N(C)C)c1ccccc1    5.4
C[C@H](OC(=O)NC[C@H](Cc1ccc(O)cc1)N(C)C)c1ccccc1    149
C[C@H](NC(=O)NC[C@H](Cc1ccc(O)cc1)N(C)C)c1ccccc1    190

With those in mind, consider the next compound.
INPUT: Give reported concentration at 1 h value for C[C@H](CC(=O)NC[C@H](Cc1ccc(O)cc1)N(C)C)c1ccccc1
OUTPUT: 23.3

----------
experiment summary: Drug concentration in Sprague-Dawley rat brain at 30 mg/kg, po and measured after 1 hr
Assay type: ADME, organism-based
applied conditions: read-out: Ct
readout type: log10 concentration at 1 h (log10 of the value in ng/g)
Base-10 log of concentration at 1 h, unit ng/g.

C[C@@H](CC(=O)NC[C@H](Cc1c(F)cc(O)cc1F)N(C)C)c1ccccc1    0.59
C[C@@H](CC(=O)NC[C@H](Cc1ccc(O)cc1)N(C)C)c1ccccc1    1.16
C[C@H](NC(=O)NC[C@H](Cc1ccc(O)cc1)N(C)C)c1ccccc1    1.52
C[C@H](OC(=O)NC[C@H](Cc1ccc(O)cc1)N(C)C)c1ccccc1    2.68
CN(C)[C@H](CNC(=O)[C@@H]1C[C@@]1(C)c1ccccc1)Cc1ccc(O)cc1    0.52

Consider the additional compound presented here.
INPUT: Tell me its log10 concentration at 1 h given C[C@H](CC(=O)NC[C@H](Cc1ccc(O)cc1)N(C)C)c1ccccc1 as the entry.
OUTPUT: 1.47

----------
tgt: UniProt P35372
experiment summary: Agonist activity at human mu opioid receptor stably transfected in CHO cells by cAMP assay
pEC50: −log10 of the molar value.
readout type: pEC50

CN(C)[C@H](CNC(=O)[C@@H]1C[C@]1(C)c1ccccc1)Cc1ccc(O)cc1Cl    < 5.52
CN(C)[C@H](CNC(=O)[C@H]1C[C@]1(C)c1ccccc1)Cc1ccc(O)cc1    < 5.52
CN(C)[C@H](CNC(=O)[C@H]1C[C@@]1(C)c1ccccc1)Cc1ccc(O)cc1    < 5.52
CN(C)[C@H](CNC(=O)[C@@H]1C[C@]1(C)c1ccccc1)Cc1ccc(O)cc1    < 5.52

Attention now shifts to the item below.
INPUT: Supply pEC50 value. Item: C[C@H](OC(=O)NC[C@@H](Cc1ccc(O)cc1)N(C)C)c1ccccc1
OUTPUT: < 5.52
